Target: CYP3A4 (Homo sapiens, UniProt P08684)
Construct: host or cells: baculovirus/insect cells
Sequence (P08684 whole entry): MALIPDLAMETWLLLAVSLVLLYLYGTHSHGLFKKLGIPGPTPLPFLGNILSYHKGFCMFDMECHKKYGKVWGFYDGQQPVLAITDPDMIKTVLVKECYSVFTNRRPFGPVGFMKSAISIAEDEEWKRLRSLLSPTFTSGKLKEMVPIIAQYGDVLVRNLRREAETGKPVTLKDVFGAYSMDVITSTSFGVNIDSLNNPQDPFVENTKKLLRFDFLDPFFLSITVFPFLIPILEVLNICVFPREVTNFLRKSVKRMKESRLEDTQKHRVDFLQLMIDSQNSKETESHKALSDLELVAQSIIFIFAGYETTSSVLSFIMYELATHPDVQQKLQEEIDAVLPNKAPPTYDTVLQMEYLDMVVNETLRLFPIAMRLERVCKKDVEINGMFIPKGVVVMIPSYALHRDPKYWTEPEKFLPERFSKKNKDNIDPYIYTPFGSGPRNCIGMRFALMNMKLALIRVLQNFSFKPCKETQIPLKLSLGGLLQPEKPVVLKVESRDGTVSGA
Assay: Cytochrome P450 inhibition, isoenzyme 3A4
Format: in vitro ADME
Conditions: baculovirus/insect cell-expressed recombinant human CYP3A4, read-out: Inhibition of the Cytochrome P450 Isoenzymes IC50, 3A4
parameter: IC50

Enquiry: I have this molecule here, O=C(Nc1cc2ccccc2cn1)c1ccccc1NCc1cc[n+]([O-])cc1 [Example 1] , and I need its recorded IC50.
Return: > 30 µM

---

# IC50 measurements, system: VEGFR II (KDR) (Homo sapiens, UniProt P35968)
# Sequence (P35968 20-1356, species assumed): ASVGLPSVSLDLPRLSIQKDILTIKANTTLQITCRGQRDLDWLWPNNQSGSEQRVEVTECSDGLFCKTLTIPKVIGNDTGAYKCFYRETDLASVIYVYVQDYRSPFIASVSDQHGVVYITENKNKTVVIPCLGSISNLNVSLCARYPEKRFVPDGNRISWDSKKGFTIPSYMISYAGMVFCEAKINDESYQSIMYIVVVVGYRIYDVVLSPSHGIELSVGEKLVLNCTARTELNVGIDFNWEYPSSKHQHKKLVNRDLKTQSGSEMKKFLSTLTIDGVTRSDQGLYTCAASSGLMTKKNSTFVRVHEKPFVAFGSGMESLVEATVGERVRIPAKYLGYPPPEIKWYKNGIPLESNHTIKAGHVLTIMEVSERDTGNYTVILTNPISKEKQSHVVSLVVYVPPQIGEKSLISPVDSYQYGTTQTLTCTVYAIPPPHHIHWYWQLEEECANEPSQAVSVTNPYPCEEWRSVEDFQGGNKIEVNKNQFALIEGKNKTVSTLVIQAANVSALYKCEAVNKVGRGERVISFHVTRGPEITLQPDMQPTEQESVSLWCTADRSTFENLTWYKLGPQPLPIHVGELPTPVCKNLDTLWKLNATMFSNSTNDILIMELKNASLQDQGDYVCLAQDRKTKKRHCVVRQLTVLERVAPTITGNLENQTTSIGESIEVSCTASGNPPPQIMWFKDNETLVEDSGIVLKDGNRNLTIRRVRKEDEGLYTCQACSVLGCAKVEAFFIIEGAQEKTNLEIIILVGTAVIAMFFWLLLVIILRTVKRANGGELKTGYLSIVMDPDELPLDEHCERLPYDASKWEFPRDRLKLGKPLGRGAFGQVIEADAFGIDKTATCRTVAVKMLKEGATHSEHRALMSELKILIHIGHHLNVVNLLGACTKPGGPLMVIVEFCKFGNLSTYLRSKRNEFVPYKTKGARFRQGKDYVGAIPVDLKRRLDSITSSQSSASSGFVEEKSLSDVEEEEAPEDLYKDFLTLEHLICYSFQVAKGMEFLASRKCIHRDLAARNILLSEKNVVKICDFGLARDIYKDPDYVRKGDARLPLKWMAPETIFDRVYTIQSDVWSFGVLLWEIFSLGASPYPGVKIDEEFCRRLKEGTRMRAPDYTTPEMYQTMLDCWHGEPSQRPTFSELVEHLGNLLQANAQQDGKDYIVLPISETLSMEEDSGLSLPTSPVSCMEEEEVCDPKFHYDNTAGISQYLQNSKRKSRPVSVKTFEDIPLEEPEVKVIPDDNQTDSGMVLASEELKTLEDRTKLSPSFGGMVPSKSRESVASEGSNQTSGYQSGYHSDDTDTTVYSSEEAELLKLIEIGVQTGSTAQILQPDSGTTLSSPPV

Consider the worked cases shown below.
O=C(Nc1cc2ccccc2cn1)c1cccnc1NCc1cc[n+]([O-])cc1: 50 nM
O=C(Nc1cc2ccccc2cn1)c1ccccc1NCc1ccc[n+]([O-])c1: 200 nM

Switching to the query record.
Enquiry: I have this molecule here, O=C(Nc1cccc(C(F)(F)F)c1)c1ccccc1NCc1cc[n+]([O-])cc1 , and I need its recorded IC50.
Return: 50 nM

---

Target: CYP2D6 (Homo sapiens, UniProt P10635)
Construct: host or cells: baculovirus/insect cells
Sequence (P10635 whole entry): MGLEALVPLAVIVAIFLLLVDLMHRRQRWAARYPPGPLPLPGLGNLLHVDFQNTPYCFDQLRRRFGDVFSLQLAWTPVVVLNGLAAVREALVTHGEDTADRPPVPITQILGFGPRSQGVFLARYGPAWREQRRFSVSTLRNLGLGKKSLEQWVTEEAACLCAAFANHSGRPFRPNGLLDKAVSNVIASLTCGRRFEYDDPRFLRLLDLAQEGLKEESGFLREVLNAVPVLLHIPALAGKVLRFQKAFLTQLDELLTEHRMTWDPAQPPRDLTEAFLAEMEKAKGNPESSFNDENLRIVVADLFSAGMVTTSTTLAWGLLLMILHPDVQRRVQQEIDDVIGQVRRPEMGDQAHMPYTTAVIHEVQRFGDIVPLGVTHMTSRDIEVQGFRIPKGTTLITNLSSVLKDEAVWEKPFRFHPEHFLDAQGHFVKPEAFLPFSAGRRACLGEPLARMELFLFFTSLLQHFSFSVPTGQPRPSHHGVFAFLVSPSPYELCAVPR
Experiment: Cytochrome P450 inhibition, isoenzyme 2D6
Type: in vitro ADME
Conditions: baculovirus/insect cell-expressed recombinant human CYP2D6, read-out: Inhibition of the Cytochrome P450 Isoenzymes IC50, 2D6
parameter: IC50

Enquiry: I have this compound here, O=C(Nc1cc2ccccc2cn1)c1ccccc1NCc1cc[n+]([O-])cc1 , and I need its recorded IC50.
Return: > 30 µM

---

Target: CYP2C9 (Homo sapiens, UniProt P11712)
Construct: host or cells: baculovirus/insect cells
Sequence (P11712 whole entry): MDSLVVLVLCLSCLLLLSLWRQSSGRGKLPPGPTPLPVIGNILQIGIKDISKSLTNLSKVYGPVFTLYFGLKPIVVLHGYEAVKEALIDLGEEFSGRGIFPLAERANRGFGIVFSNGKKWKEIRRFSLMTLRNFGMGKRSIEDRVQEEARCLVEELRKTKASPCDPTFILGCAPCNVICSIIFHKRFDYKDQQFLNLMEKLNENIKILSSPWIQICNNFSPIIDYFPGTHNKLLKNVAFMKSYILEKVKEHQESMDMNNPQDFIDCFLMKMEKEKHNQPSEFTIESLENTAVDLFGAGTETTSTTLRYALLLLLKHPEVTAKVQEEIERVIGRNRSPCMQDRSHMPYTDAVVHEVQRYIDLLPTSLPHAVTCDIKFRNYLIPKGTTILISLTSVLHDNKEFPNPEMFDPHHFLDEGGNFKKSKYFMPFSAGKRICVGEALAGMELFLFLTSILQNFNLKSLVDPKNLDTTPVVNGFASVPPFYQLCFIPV
Experiment: Cytochrome P450 inhibition, isoenzyme 2C9
Format: in vitro ADME
Settings: baculovirus/insect cell-expressed recombinant human CYP2C9, read-out: Inhibition of the Cytochrome P450 Isoenzymes IC50, 2C9
parameter: IC50 (µM)
Write the number in µM without appending the unit.

Enquiry: Enter reported IC50 observed with CYP2C9 (Homo sapiens, UniProt P11712) for O=C(Nc1cc2ccccc2cn1)c1ccccc1NCc1cc[n+]([O-])cc1
Return: 5.2

---

Molecular target: CYP2C19 (Homo sapiens, UniProt P33261)
Construct: host or cells: baculovirus/insect cells
Sequence (P33261 whole entry): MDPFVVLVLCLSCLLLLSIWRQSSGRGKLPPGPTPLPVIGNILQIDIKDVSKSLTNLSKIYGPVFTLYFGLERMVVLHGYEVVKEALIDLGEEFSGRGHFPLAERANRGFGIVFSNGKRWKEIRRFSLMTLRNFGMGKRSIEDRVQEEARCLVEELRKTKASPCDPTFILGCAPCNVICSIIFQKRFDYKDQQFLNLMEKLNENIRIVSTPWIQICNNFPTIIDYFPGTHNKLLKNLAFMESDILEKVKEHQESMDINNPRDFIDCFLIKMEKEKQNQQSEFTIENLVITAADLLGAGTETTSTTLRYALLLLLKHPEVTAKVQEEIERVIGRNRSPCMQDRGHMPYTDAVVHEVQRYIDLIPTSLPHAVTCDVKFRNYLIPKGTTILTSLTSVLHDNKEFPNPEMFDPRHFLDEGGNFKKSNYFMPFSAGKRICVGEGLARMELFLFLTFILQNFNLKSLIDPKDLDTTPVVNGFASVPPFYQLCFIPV
Assay: Cytochrome P450 inhibition, isoenzyme 2C19
Format: in vitro ADME
Conditions: baculovirus/insect cell-expressed recombinant human CYP2C19, read-out: Inhibition of the Cytochrome P450 Isoenzymes IC50, 2C19
parameter: pIC50
The quantity pIC50 is defined as the negative base-10 logarithm of the molar concentration.

Enquiry: I have this molecule here, O=C(Nc1cc2ccccc2cn1)c1ccccc1NCc1cc[n+]([O-])cc1 [Example 1] , and I need its recorded pIC50.
Return: 5.44
